TEST_METHOD_NOTES: High-throughput centrifuge analysis of mechanical properties of the hydrogels (surface deformation, metal bead penetration)
Assay type: physicochemical
COND: 5 mM peptide-starPEG + 5 mM 14-kDa-heparin; 275 μm metal beads
Procedure: ATIII is a heparin-binding peptide known from the literature. All peptides are connected to a four-armed, maleimide functionalized 10-kDa-polyethylene glycol (starPEG). […] The deformation and penetration speed was analyzed through centrifuging the hydrogel in a 45° table centrifuge with 275 μm metal beads added to the surface. The deformation of the surface and the penetration of the metal beads were monitored in dependence on the applied force. […]
REPORTED_PROPERTY: Penetration speed

SEQUENCE_DATA	REPORTED_PROPERTY	REPORTED_RESULT
CWGGKAKAKAKAKA [KA5]	Penetration speed	21209 +/- 2188 m/s^2
CWGGRARARARARARARA [RA7]	Penetration speed	1952 +/- 491 m/s^2
CWGGRARARARARA [RA5]	Penetration speed	>687 m/s^2

Next item in the queue.
Penetration speed for CWGGKAKAKAKAKAKAKA [KA7] is 138919 +/- 16275 m/s^2

====

Measured Deformation speed, listed per entry for reference.
TEST_METHOD_NOTES: High-throughput centrifuge analysis of mechanical properties of the hydrogels (surface deformation, metal bead penetration)
Type: physicochemical
COND: 5 mM peptide-starPEG + 5 mM 14-kDa-heparin, 50 μl 1×PBS, 45° centrifuge

SEQUENCE_DATA	REPORTED_PROPERTY	REPORTED_RESULT
CWGGKAKAKAKAKA [KA5]	Deformation speed	11223 +/- 4768 m/s^2
CWGGKAKAKAKAKAKAKA [KA7]	Deformation speed	>148317 m/s^2
CWGGRARARARARARARA [RA7]	Deformation speed	1069 +/- 579 m/s^2

Kindly review the next sequence as well.
The value of Deformation speed measured for the sequence CWGGRARARARARA [RA5] turned out to be >687 m/s^2

Measured values drawn from patent US11523990B2 for this set.
